Tested on: Leishmania donovani axenic amastigote parasites
Assay: Leishmania donovani axenic amastigote proliferation assay (Cell TiterGlo luminescence, 2 day incubation)
Format: cell-based
Settings: Leishmania donovani, L. donovani axenic amastigotes; read-out: L. donovani amastigotes EC50
measure.name: EC50 (nM)
Quick reminder: number only, in nM, skip the unit.

Answered cases to consult:
{"mol": "Cc1nc(C)c(C(=O)Nc2ccc(F)c(-c3cn4cc(C#CCCO)cnc4n3)c2)o1", "readout.units": "nM", "data.value": 212}
{"mol": "Cc1nc(C)c(C(=O)Nc2ccc(F)c(-c3cn4cc([Si](C)(C)C)cnc4n3)c2)o1", "readout.units": "nM", "data.value": 133}

Query :: Look up EC50 of Cc1nc(C)c(C(=O)Nc2ccc(F)c(-c3cn4cc(C5=CCCCO5)cnc4n3)c2)o1 and report it.
Result :: 115

Query :: Look up EC50 of O=C(Nc1ccc(F)c(-c2cn3cc(-c4cccnc4)cnc3n2)c1)N1CC(F)C1 and report it.
Result :: 94

* * *

Test system: L. donovani HU3 strain in mouse peritoneal macrophages
Test: Assay for proliferation of Leishmania parasites in infected mouse peritoneal macrophages (SybrGreen staining, high-content imaging, 5 days)
Format: cell-based, Leishmania donovani
Settings: Leishmania donovani, Peritoneal macrophage, L. donovani in mouse peritoneal macrophages, inhibition of proliferation; read-out: L. donovani Macrophage EC50
Values of EC50 strictly less than 0.6 µM map to fulfilled, and values of at least 0.6 µM map to not fulfilled.

Solved entries:
{"molecule": "Cc1nc(C)c(C(=O)Nc2ccc(F)c(-c3cn4cc(NC(=O)[C@H]5NCC[C@@H]5O)cnc4n3)c2)o1 [Compound 160]", "target.desc": "L. donovani HU3 strain in mouse peritoneal macrophages", "label.class": "not fulfilled"}
{"molecule": "C=C(c1ccccc1)c1cnc2nc(-c3cc(NC(=O)c4oc(C)nc4C)ccc3F)cn2c1 [Compound 346]", "target.desc": "L. donovani HU3 strain in mouse peritoneal macrophages", "label.class": "fulfilled"}
{"molecule": "Cc1nc(C)c(C(=O)Nc2ccc(F)c(-c3cn4cc(NC(=O)c5nc(NC(=O)OC(C)(C)C)cn5C)cnc4n3)c2)o1 [Compound 176]", "target.desc": "L. donovani HU3 strain in mouse peritoneal macrophages", "label.class": "not fulfilled"}

Query :: Please determine if Cc1nc(C)c(C(=O)Nc2ccc(F)c(-c3cn4cc(NC(=O)CN(C)C)cnc4n3)c2)o1 [Compound 186] is below 0.6 µM in terms of EC50.
Result :: not fulfilled

Query :: Please determine if COC1CC(NC(=O)Nc2ccc(Cl)c(-c3cn4cc(NC(=O)OC(C)C)cnc4n3)c2)C1 (stereo not shown) [Compound 284] is below 0.6 µM in terms of EC50.
Result :: not fulfilled

Query :: Please determine if Cc1nc(C)c(C(=O)Nc2ccc(F)c(-c3cn4cc(NC(=O)C5CC5)cnc4n3)c2)o1 [Compound 248] is below 0.6 µM in terms of EC50.
Result :: fulfilled

* * *

Entries and their measured pEC50 follow.
Tested on: Leishmania donovani axenic amastigote parasites
Assay: Leishmania donovani axenic amastigote proliferation assay (Cell TiterGlo luminescence, 2 day incubation)
Format: cell-based
Conditions: Leishmania donovani, L. donovani axenic amastigotes; read-out: L. donovani amastigotes EC50
pEC50 is defined as minus the log10 of a concentration measured in mol/L.

{"mol": "CN(C)c1cnc2nc(-c3cc(NC(=O)N4CC[C@@H](F)C4)ccc3F)cn2c1", "target.desc": "Leishmania donovani axenic amastigote parasites", "data.value": 7.06}
{"mol": "CC(C)OC(=O)N(C)c1cnc2nc(-c3cc(NC(=O)c4ccco4)ccc3Cl)cn2c1", "target.desc": "Leishmania donovani axenic amastigote parasites", "data.value": 6.13}

Now take the following compound into account.
Query :: Look up pEC50 of CCn1nccc1-c1cnc2nc(-c3cc(NC(=O)c4oc(C)nc4C)ccc3F)cn2c1 and report it.
Result :: 7.07
